Experiment Summary: PK in dogs after i.v. C118P
Assay type: in vivo, beagle dogs
Experimental Conditions: both sexes, beagle, dog, iv; dogs, plasma, i.v. C118P 1 mg/kg, n = 6
Quantity: AUC(0-inf) (ng·h/mL)

{"Compound": "COc1cc(OC)cc(-c2nc[nH]c2-c2ccc(OC)c(O)c2)c1 [C118]", "Quantity": "AUC(0-inf)", "Reported Result": 214}

----------
Experiment Summary: PK in rats after i.v. C118P
Assay type: in vivo, SD rats
Experimental Conditions: both sexes, SD, rat, in vivo, iv; rats, plasma, i.v. C118P 20 mg/kg, n = 6
Quantity: AUC(0-inf) (ng·h/mL)

{"Compound": "COc1cc(OC)cc(-c2nc[nH]c2-c2ccc(OC)c(OP(=O)([O-])[O-])c2)c1.[Na+].[Na+] [C118P]", "Quantity": "AUC(0-inf)", "Reported Result": 18700}

----------
Experiment Summary: PK in tumor-bearing nude mice after i.v. C118P
Assay type: in vivo, nude mice (BALB/cA) implanted with NCI-H460 tumor
Experimental Conditions: BALB/cA nude, mouse, in vivo; nude mice, tumor, i.v. C118P 75 mg/kg, n = 4; read-out: C2min
Quantity: concentration at 2 min

{"Compound": "COc1cc(OC)cc(-c2nc[nH]c2-c2ccc(OC)c(OP(=O)([O-])[O-])c2)c1.[Na+].[Na+] [C118P]", "Quantity": "concentration at 2 min", "Reported Result": "292 ng/g"}

----------
Experiment Summary: PK in tumor-bearing nude mice after i.v. C118P
Type: in vivo, nude mice (BALB/cA) implanted with NCI-H460 tumor
Experimental Conditions: BALB/cA nude, mouse, in vivo, iv, 75 mg/kg, nude mice, tumor, i.v. C118P 75 mg/kg, n = 4
Quantity: half-life (h)

{"Molecule": "COc1cc(OC)cc(-c2nc[nH]c2-c2ccc(OC)c(OP(=O)([O-])[O-])c2)c1.[Na+].[Na+] [C118P]", "Unit Abbreviation": "h", "Reported Result": 1.16}

----------
Experiment Summary: PK in rats after i.v. C118P
Format: in vivo, SD rats
Experimental Conditions: both sexes, SD, rat, in vivo, iv; rats, plasma, i.v. C118P 50 mg/kg, n = 6; read-out: CL (converted)

{"Compound": "COc1cc(OC)cc(-c2nc[nH]c2-c2ccc(OC)c(OP(=O)([O-])[O-])c2)c1.[Na+].[Na+] [C118P]", "clearance, mL/min/kg": 22.3}

----------
Experiment Summary: PK in rats after i.v. C118P
Format: in vivo, SD rats
Experimental Conditions: both sexes, SD, rat, in vivo, iv; rats, plasma, i.v. C118P 50 mg/kg, n = 6

{"Molecule": "COc1cc(OC)cc(-c2nc[nH]c2-c2ccc(OC)c(OP(=O)([O-])[O-])c2)c1.[Na+].[Na+] [C118P]", "Unit Abbreviation": "min", "half-life": 48}

----------
Experiment Summary: PK in rats after i.v. C118P
Type: in vivo, SD rats
Experimental Conditions: both sexes, SD, rat, in vivo, iv; rats, plasma, i.v. C118P 5 mg/kg, n = 6
Quantity: AUC(0-inf) (ng·h/mL)

{"Compound": "COc1cc(OC)cc(-c2nc[nH]c2-c2ccc(OC)c(OP(=O)([O-])[O-])c2)c1.[Na+].[Na+] [C118P]", "Reported Result": 5740}

Hey, just so you know, these numbers are from paper PMC6278385.
